Target: T1, HLA-B*44:02 (human)
T1 construct: Peptide-receptive MHC class I monomer made by UV cleavage of a UV-sensitive ligand
Experiment: UV ligand exchange ELISA; exchange yield grade
metric.name: peptide exchange yield

Worked examples follow.
TEGKRYFTW 50 to 75%
EVDASIFKAW 20 to 50%
KEYDFGTQL 20 to 50%
EENPGKFLF 50 to 75%

Per the record, NEQKIVRF has peptide exchange yield of 10 to 20%

Per the record, KEIGAAVQAL has peptide exchange yield of 50 to 75%

Per the record, EEWMGLLEY has peptide exchange yield of > 75%

Per the record, EEEHGKGREY has peptide exchange yield of 20 to 50%

Per the record, EENGEVKEL has peptide exchange yield of 20 to 50%

Per the record, GENDRLNHTY has peptide exchange yield of 20 to 50%

Per the record, KEVPRSYEL has peptide exchange yield of 20 to 50%

Per the record, EEPAFNVSY has peptide exchange yield of 20 to 50%

Per the record, AEHNFVAKA has peptide exchange yield of 50 to 75%

Per the record, AEPGPVITW has peptide exchange yield of 50 to 75%

Per the record, VELDLQRSV has peptide exchange yield of 20 to 50%

Per the record, EYDLKWEF has peptide exchange yield of 20 to 50%
